# assayed.target: asialoglycoprotein receptor (ASGPR) on HepG2 cells (human) (UniProt P07306)
# Sequence (P07306 whole entry, chain 1 of 2): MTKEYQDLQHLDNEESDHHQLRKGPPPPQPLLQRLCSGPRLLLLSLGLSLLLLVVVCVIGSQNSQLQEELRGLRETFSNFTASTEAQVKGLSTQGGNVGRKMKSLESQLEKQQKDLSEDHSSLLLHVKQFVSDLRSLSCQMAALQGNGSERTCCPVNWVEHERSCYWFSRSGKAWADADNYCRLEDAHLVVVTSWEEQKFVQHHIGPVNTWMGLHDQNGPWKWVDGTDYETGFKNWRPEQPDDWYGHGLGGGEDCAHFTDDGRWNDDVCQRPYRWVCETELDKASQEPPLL
# Sequence (P07307 whole entry, chain 2 of 2, further chain): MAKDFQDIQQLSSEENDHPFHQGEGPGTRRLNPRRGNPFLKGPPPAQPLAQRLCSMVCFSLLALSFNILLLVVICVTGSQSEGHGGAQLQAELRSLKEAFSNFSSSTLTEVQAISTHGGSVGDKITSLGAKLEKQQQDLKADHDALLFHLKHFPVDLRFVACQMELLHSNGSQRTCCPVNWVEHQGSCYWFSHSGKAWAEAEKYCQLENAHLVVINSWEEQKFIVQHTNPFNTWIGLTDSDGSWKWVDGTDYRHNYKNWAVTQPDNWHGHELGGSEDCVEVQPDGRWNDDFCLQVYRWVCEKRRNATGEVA
# experimental.protocol: flow cytometry, % FAM-positive HepG2 cells after 24 h with 8 nM ligand
Square brackets hold non-standard residues; d marks the D form. Side chains are listed from the residue outwards. * marks the point of attachment. Gal‑1 = GalNAc linker: 5-(GalNAc-oxy)pentanoic acid (3-acetamido-4,5-diacetoxy-6-(acetoxymethyl)tetrahydropyran-2-yl-oxy)pentanoic acid; Gal‑3 = GalNAc linker: 4-(GalNAc-oxy)butanoic acid (3-acetamido-4,5-diacetoxy-6-(acetoxymethyl)tetrahydropyran-2-yl-oxy)butanoic acid; 5FAM = O=C1OC2(c3ccc(O)cc3Oc3cc(O)ccc32)c2ccc(C(=O)*)cc21; Linker2 = 6-aminohexyl amide linker; GalNAc = N-acetylgalactosamine
measure: Efficiency (%) (proportion of FAM positive cells)
Write down the value, and be sure its unit follows.

Sample answers from the record:
# binder, data.value
data = [
    ("KEKGKG (head-to-tail cyclic; D-Glu; each Lys side chain carries GalNAc via linker Gal-4; D-Glu side chain carries Linker2 with 5-FAM) [5-FAM-CPMB-0034]", "25.6%"),
    ("cyclo([dK]([Gal‑3-GalNAc])[dE]([Linker2-5FAM])[dK]([Gal‑3-GalNAc])G[dK]([Gal‑3-GalNAc])G) [5-FAM-CPMB-0023]", "47.2%"),
]

Quick one: Efficiency (%) (proportion of FAM positive cells) for cyclo([dK]([Gal‑1-GalNAc])[dE]([Linker2-5FAM])[dK]([Gal‑1-GalNAc])G[dK]([Gal‑1-GalNAc])G) [5-FAM-CPMB-0021] ?
46.1%
